System tested: HiBit-BRG1 fusion protein (Homo sapiens)
Construct: expressed in transfected cells
Assay info: HiBiT-BRG1 cell-based degradation assay (Nano-Glo HiBiT Lytic Detection, 24 h)
Conditions used: stable HeLa cell line expressing HiBit-BRG1 and LgBit, top dose 30 μM, read-out: BRG1 HiBit Degradation Maximum (%)
Known Dmax of a selection of molecules

Guide cases for Dmax, answers given:
[[record]]
molecule = "Nc1nnc(-c2ccccc2O)cc1OCC12CC(C(=O)NCCOc3cccc(OCCNc4ccc5c(c4)C(=O)N(C4CCC(=O)NC4=O)C5=O)c3)(C1)C2 (stereo not drawn) [Compound 82]"
data_value = "< 50%"

[[record]]
molecule = "Nc1nnc(-c2ccccc2O)cc1OCC12CC(C(=O)N3CC(COc4ccc5c(c4)C(=O)N(C4CCC(=O)NC4=O)C5=O)C3)(C1)C2 (stereo not drawn) [Compound 86]"
data_value = "> 50%"

[[record]]
molecule = "Cc1ncsc1-c1ccc(CNC(=O)[C@@H]2C[C@@H](O)CN2C(=O)[C@@H](NC(=O)CCCCCCCC(=O)NC23CC(CCOc4cc(-c5ccccc5O)nnc4N)(C2)C3)C(C)(C)C)cc1 [Compound 44]"
data_value = "< 50%"


HiBit-BRG1 fusion protein (Homo sapiens) Dmax of Nc1nnc(-c2ccccc2O)cc1OCCC12CC(NC(=O)CCOCCOCCOc3ccc4c(c3)C(=O)N(C3CCC(=O)NC3=O)C4=O)(C1)C2 (stereo not drawn) [Compound 31] is < 50%

Tested on HiBit-BRG1 fusion protein (Homo sapiens): Nc1nnc(-c2ccccc2O)cc1OCC12CC(C(=O)NCCS(=O)(=O)CCNc3cccc4c3C(=O)N(C3CCC(=O)NC3=O)C4=O)(C1)C2 (stereo not drawn) [Compound 74] . Observed Dmax: < 50%

Record Nc1nnc(-c2ccccc2O)cc1OCC12CC(C(=O)NCCOCCOCCNc3cccc4c3CN(C3CCC(=O)NC3=O)C4=O)(C1)C2 (stereo not drawn) [Compound 60] / HiBit-BRG1 fusion protein (Homo sapiens), Dmax recorded as < 50%

* * *

A collection of compounds and their measured Dmax
System tested: HiBit-BRG1 fusion protein (Homo sapiens, UniProt P51532)
Construct: expressed in transfected cells
Sequence (P51532 whole entry, the tested form may be a part): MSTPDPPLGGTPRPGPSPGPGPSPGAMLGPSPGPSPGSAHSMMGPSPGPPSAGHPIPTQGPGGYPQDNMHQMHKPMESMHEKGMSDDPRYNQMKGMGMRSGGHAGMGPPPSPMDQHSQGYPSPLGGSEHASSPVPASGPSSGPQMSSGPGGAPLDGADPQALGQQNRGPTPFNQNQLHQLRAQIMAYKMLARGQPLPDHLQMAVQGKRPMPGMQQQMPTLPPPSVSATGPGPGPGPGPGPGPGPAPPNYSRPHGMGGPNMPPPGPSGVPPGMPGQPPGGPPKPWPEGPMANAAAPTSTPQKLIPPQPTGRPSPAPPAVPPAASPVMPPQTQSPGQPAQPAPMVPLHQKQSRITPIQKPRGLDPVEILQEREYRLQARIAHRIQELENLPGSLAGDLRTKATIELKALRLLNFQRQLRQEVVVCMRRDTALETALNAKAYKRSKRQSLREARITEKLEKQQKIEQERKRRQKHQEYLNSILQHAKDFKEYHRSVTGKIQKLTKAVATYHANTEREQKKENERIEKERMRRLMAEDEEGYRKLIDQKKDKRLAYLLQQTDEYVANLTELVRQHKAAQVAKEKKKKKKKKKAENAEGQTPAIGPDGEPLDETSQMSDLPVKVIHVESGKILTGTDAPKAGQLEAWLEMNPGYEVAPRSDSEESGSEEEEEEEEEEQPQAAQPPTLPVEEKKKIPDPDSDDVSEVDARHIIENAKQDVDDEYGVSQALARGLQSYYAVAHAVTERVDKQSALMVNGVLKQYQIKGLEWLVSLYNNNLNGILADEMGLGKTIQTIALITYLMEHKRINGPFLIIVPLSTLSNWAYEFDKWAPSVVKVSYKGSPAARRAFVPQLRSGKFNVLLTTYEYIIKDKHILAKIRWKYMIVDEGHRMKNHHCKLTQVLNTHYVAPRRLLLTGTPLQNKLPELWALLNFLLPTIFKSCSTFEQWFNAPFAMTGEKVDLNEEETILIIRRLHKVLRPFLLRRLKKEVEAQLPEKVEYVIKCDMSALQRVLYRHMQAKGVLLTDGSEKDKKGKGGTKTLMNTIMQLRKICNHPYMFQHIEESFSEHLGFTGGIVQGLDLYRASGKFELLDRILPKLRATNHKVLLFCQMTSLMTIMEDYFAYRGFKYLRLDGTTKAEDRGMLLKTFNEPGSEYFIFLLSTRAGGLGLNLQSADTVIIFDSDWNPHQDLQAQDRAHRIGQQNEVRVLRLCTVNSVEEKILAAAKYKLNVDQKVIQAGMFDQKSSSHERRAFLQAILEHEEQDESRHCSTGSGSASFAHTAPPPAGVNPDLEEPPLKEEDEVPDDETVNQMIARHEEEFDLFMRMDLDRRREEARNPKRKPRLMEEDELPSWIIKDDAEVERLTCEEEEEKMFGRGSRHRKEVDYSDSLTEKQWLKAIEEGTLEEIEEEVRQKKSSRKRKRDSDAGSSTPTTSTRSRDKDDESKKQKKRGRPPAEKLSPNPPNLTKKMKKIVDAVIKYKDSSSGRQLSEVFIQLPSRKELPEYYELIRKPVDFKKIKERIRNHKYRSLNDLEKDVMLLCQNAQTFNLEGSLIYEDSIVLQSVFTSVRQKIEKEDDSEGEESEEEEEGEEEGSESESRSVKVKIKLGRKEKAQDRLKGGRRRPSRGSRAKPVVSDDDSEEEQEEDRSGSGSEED
Assay info: HiBiT-BRG1 cell-based degradation assay (Nano-Glo HiBiT Lytic Detection, 24 h)
Conditions used: stable HeLa cell line expressing HiBit-BRG1 and LgBit, top dose 30 μM, read-out: BRG1 HiBit Degradation Maximum (%)

Take a look at these entries with their results.
[[record]]
compound = "Nc1nnc(-c2ccccc2O)cc1OCC12CC(C(=O)NCCOCCOCCNc3ccc4c(c3)C(=O)N(C3CCC(=O)NC3=O)C4=O)(C1)C2 (centres unmarked) [Compound 66]"
data_value = "< 50%"

[[record]]
compound = "Cc1ncsc1-c1ccc(CNC(=O)[C@@H]2C[C@@H](O)CN2C(=O)[C@@H](NC(=O)CCCC(=O)NCC23CC(COc4cc(-c5ccccc5O)nnc4N)(C2)C3)C(C)(C)C)cc1 [Compound 37]"
data_value = "< 50%"

[[record]]
compound = "Cc1nc2cccc(NCCOCCOCCNC(=O)C34CC(COc5cc(-c6ccccc6O)nnc5N)(C3)C4)c2c(=O)n1C1CCC(=O)NC1=O (centres unmarked) [Compound 61]"
data_value = "< 50%"

[[record]]
compound = "Cc1ncsc1-c1ccc(CNC(=O)[C@@H]2C[C@@H](O)CN2C(=O)[C@@H](NC(=O)CCCCCCCCCC(=O)NC23CC(CCOc4cc(-c5ccccc5O)nnc4N)(C2)C3)C(C)(C)C)cc1 [Compound 48, formic acid]"
data_value = "> 50%"


Looking up Nc1nnc(-c2ccccc2O)cc1OCC12CC(C(=O)N3CCN(CCCC#Cc4ccc5c(c4)C(=O)N(C4CCC(=O)NC4=O)C5=O)CC3)(C1)C2 (centres unmarked) [Compound 51] , I see its Dmax listed as < 50%

* * *

System tested: HiBit-BRG1 fusion protein (Homo sapiens)
Construct: expressed in transfected cells
Assay info: HiBiT-BRG1 cell-based degradation assay (Nano-Glo HiBiT Lytic Detection, 24 h)
Conditions used: stable HeLa cell line expressing HiBit-BRG1 and LgBit, top dose 30 μM, read-out: BRG1 HiBit Degradation Maximum (%)
The following molecules are shown together with reported Dmax values.

Below, each entry is followed by its recorded Dmax result.
[[record]]
molecule = "Nc1nnc(-c2ccccc2O)cc1OCCC12CC(NC(=O)CCCCCCCCNc3ccc4c(c3)C(=O)N(C3CCC(=O)NC3=O)C4=O)(C1)C2 (stereo not drawn) [Compound 25]"
recorded_metric = "Dmax"
data_value = "< 50%"

[[record]]
molecule = "Cc1ncsc1-c1ccc(CNC(=O)[C@@H]2C[C@@H](O)CN2C(=O)[C@@H](NC(=O)CCCCCCCCCCCCCCC(=O)NCC23CC(COc4cc(-c5ccccc5O)nnc4N)(C2)C3)C(C)(C)C)cc1 [Compound 41]"
recorded_metric = "Dmax"
data_value = "< 50%"


Dmax value, target or system HiBit-BRG1 fusion protein (Homo sapiens), for Nc1nnc(-c2ccccc2O)cc1OCC12CC(C(=O)NCCOCCOCCOCCNC(=O)COc3ccc4c(c3)C(=O)N(C3CCC(=O)NC3=O)C4=O)(C1)C2 (stereo not drawn) [Compound 93] : < 50%

* * *

System tested: HiBit-BRG1 fusion protein (Homo sapiens, UniProt P51532)
Construct: expressed in transfected cells
Assay info: HiBiT-BRG1 cell-based degradation assay (Nano-Glo HiBiT Lytic Detection, 24 h)
Conditions used: stable HeLa cell line expressing HiBit-BRG1 and LgBit, top dose 30 μM, read-out: BRG1 HiBit Degradation Maximum (%)
Protocol: Procedure: A stable HeLa cell line expressing HiBiT-BRM was generated. On day 0, 5000 cells were seeded in 40 μL of media into each well of 384-well cell culture plates. […] The plates were shaken for 10 minutes at room temperature and the bioluminescence read using an EnVision plate reader (PerkinElmer). […] The degradation % was calculated using the following formula: % degradation=100%−100%×(Lumsample−LumLC)/(LumHC−LumLC). […]
Each entry below carries its reported Dmax.

Guide cases for Dmax, answers given:
[[record]]
compound = "Nc1nnc(-c2ccccc2O)cc1OCC12CC(CNC(=O)CCN3CCN(c4ccc5c(c4)C(=O)N(C4CCC(=O)NC4=O)C5=O)CC3)(C1)C2 (stereo not drawn) [Compound 16]"
data_value = "< 50%"

[[record]]
compound = "Nc1nnc(-c2ccccc2O)cc1OCC12CC(C(=O)NCCOCCOCCOCCNC(=O)COc3cccc4c3C(=O)N(C3CCC(=O)NC3=O)C4=O)(C1)C2 (stereo not drawn) [Compound 92]"
data_value = "< 50%"


Next compound, please.
The measured Dmax associated with Cc1ncsc1-c1ccc(CNC(=O)[C@@H]2C[C@@H](O)CN2C(=O)[C@@H](NC(=O)CCCCC(=O)NC23CC(CCOc4cc(-c5ccccc5O)nnc4N)(C2)C3)C(C)(C)C)cc1 [Compound 43] reads > 75%
